Cited source: patent US9133128B2

Target: CB1 (Homo sapiens)
Construct: expressed in transfected cells; host or cells: CHO-K1 (membranes)
Sequence (P21554 whole entry): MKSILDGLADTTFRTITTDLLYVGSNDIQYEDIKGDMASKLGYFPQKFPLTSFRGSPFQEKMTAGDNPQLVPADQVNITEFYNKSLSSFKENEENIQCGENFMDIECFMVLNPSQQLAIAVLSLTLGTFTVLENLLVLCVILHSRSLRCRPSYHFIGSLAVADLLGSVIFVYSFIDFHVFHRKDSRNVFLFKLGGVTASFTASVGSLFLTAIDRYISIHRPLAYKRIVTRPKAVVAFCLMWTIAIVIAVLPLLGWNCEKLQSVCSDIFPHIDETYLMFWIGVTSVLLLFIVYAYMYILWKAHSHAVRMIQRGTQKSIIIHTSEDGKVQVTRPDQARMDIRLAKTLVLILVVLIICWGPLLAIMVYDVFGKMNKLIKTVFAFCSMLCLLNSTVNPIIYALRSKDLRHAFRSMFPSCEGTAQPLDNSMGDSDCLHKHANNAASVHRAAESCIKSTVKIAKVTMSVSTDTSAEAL
Assay: Displacement of [3H]CP55940 in membranes of CHO-K1 cells over-expressing CB1
Assay type: binding
Details: Table 4; CB2 Ki over CB1 Ki
measured_parameter: Binding Selectivity using CP55940 Displacement

>>> experimental_result("Cc1c(C(=O)N2CCC(NC(=O)NC(C)(C)C)(c3ccccc3)CC2)nn(-c2ccc(Cl)cc2Cl)c1-c1ccc(Cl)cc1")
424.6
>>> experimental_result("Cc1c(C(=O)N2CCC(NC(=O)OC(C)(C)C)(c3ccccc3)CC2)nn(-c2ccc(Cl)cc2Cl)c1-c1ccc(Cl)cc1")
48.9
>>> experimental_result("Cc1c(C(=O)N2CCC(O)(c3ccccc3)CC2)nn(-c2ccc(Cl)cc2Cl)c1-c1ccc(N(C)C)cc1")
1.0
>>> experimental_result("CCNC(=O)NC1(c2ccccc2)CCN(C(=O)c2nn(-c3ccc(Cl)cc3Cl)c(-c3ccc(Cl)cc3)c2C)CC1")
12.1
>>> experimental_result("Cc1c(C(=O)N2CCC(O)(c3ccccc3)CC2)nn(-c2ccc(Cl)cc2Cl)c1-c1ccc(Cl)cc1")
12.3
>>> experimental_result("CCCCCCNC(=O)NC1(c2ccccc2)CCN(C(=O)c2nn(-c3ccc(Cl)cc3Cl)c(-c3ccc(Cl)cc3)c2C)CC1")
62.2
>>> experimental_result("CCCNC(=O)NC1(c2ccccc2)CCN(C(=O)c2nn(-c3ccc(Cl)cc3Cl)c(-c3ccc(Cl)cc3)c2C)CC1")
38.7
>>> experimental_result("Cc1c(C(=O)N2CCC(NS(C)(=O)=O)(c3ccccc3)CC2)nn(-c2ccc(Cl)cc2Cl)c1-c1ccc(Cl)cc1")
5.6
>>> experimental_result("Cc1c(C(=O)N2CCC(C(N)=O)(c3ccccc3)CC2)nn(-c2ccc(Cl)cc2Cl)c1-c1ccc(Cl)cc1")
1600.0
>>> experimental_result("Cc1c(C(=O)N2CCC(C(N)=O)(c3ccccc3)CC2)nn(-c2ccc(Cl)cc2Cl)c1-c1ccc(Br)cc1")
226.3
>>> experimental_result("Cc1c(C(=O)N2CCC(NC(=O)NC3CCCCC3)(c3ccccc3)CC2)nn(-c2ccc(Cl)cc2Cl)c1-c1ccc(Cl)cc1")
25.3
>>> experimental_result("CCCCNC(=O)NC1(c2ccccc2)CCN(C(=O)c2nn(-c3ccc(Cl)cc3Cl)c(-c3ccc(Cl)cc3)c2C)CC1")
178.1
